subject_of_test: hGlyT-2 (Homo sapiens, UniProt Q9Y345)
Sequence (Q9Y345 whole entry): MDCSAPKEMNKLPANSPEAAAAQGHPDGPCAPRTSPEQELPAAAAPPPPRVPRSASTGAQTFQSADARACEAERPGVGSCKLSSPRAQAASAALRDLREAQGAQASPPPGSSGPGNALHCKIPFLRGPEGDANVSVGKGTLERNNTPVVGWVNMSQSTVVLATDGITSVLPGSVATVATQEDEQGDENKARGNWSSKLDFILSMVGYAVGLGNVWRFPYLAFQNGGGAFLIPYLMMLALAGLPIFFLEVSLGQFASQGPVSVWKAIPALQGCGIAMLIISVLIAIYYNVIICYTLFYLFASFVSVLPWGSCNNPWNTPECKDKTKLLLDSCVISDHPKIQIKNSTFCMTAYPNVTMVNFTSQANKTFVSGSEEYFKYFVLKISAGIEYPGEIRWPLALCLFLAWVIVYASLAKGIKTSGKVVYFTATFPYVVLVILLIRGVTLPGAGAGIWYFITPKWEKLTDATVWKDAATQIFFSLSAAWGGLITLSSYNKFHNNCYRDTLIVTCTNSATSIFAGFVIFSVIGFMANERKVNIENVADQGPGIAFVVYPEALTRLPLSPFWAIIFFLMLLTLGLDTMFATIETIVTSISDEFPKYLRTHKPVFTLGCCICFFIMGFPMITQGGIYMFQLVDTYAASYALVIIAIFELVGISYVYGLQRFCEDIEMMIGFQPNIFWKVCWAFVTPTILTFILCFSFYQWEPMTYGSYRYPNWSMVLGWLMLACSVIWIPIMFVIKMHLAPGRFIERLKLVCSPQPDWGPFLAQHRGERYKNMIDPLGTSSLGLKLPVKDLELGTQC
assay_name: Glycine uptake assay, CHO cells stably transfected with hGlyT-2
condition_details: [3H]-glycine 30 μM, 37° C., 10 minutes, read-out: Inhibition of glycine transport by hGlyT-2 IC50

[
  {
    "smiles_data": "Cc1cc(C(=O)NCC2(N(C)C)CCCCCC2)cc(C)c1OCc1ccccc1",
    "subject_of_test": "hGlyT-2 (Homo sapiens, UniProt Q9Y345)",
    "IC50, nM": 92
  },
  {
    "smiles_data": "COc1cc(C(=O)NCC2(N(C)C)CCCC2)cc(OC)c1OCc1ccc(C(F)(F)F)cc1",
    "subject_of_test": "hGlyT-2 (Homo sapiens, UniProt Q9Y345)",
    "IC50, nM": 76
  },
  {
    "smiles_data": "CCCCOc1c(OC)cc(C(=O)NCC2(N(C)C)CCCC2)cc1OC",
    "subject_of_test": "hGlyT-2 (Homo sapiens, UniProt Q9Y345)",
    "IC50, nM": 77
  },
  {
    "smiles_data": "COc1cc(C(=O)NCC2(N(C)C)CCCC2)cc(OC)c1OCC(C)C",
    "subject_of_test": "hGlyT-2 (Homo sapiens, UniProt Q9Y345)",
    "IC50, nM": 79
  },
  {
    "smiles_data": "COc1cc(C(=O)NCC2(N(C)C)CCCC2)cc(OC)c1OCCc1ccccc1",
    "subject_of_test": "hGlyT-2 (Homo sapiens, UniProt Q9Y345)",
    "IC50, nM": 156
  }
]
